- System: Klebsiella pneumoniae
- methodDescription: Antibacterial activity against Klebsiella pneumonia assessed as inhibition of bacterial growth measured after 24 hrs incubation
- Format: functional
attributeMeasured: MIC (µg/mL)
Record the value in µg/mL, omitting the unit from your answer.

Measured MIC, CCn1cc(C(=O)O)c(=O)c2cc(F)c(N3CCN(C(=O)/C(C#N)=C/c4c[nH]c5cc(C)ccc45)CC3)cc21 : 0.25

For record CCn1cc(C(=O)O)c(=O)c2cc(F)c(N3CCN(C(=O)/C(C#N)=C/c4c[nH]c5ccc(Cl)cc45)CC3)cc21 the listed MIC is 1

Entry CCn1cc(C(=O)O)c(=O)c2cc(F)c(N3CCN(C(=O)/C(C#N)=C/c4cn(Cc5cccc(F)c5)c5ccccc45)CC3)cc21 ; MIC = 1

Value of measured MIC for the entry CCn1cc(C(=O)O)c(=O)c2cc(F)c(N3CCN(C(=O)/C(C#N)=C/c4cn(CCCN5CCOCC5)c5ccccc45)CC3)cc21 : 0.25

Lab book: MIC of CCCCCn1cc(/C=C(\C#N)C(=O)N2CCN(c3cc4c(cc3F)c(=O)c(C(=O)O)cn4CC)CC2)c2ccccc21 noted as 0.5

Value of measured MIC for the entry CCn1cc(C(=O)O)c(=O)c2cc(F)c(N3CCN(C(=O)/C(C#N)=C/c4c[nH]c5cc(F)ccc45)CC3)cc21 : 0.5

Recorded MIC (compound CCCCCCCCn1cc(/C=C(\C#N)C(=O)N2CCN(c3cc4c(cc3F)c(=O)c(C(=O)O)cn4CC)CC2)c2ccccc21 ): 2
